TESTED TARGET: delta-opioid receptor (DOR) (Rattus norvegicus)
Construct: Rat cortices were homogenized using 50 mM Tris, pH 7.4, 10 mM MgCl2-6H2O, 200 µM PMSF; from tissue; host or cells: rat cortex membranes
Sequence (P33533 whole entry): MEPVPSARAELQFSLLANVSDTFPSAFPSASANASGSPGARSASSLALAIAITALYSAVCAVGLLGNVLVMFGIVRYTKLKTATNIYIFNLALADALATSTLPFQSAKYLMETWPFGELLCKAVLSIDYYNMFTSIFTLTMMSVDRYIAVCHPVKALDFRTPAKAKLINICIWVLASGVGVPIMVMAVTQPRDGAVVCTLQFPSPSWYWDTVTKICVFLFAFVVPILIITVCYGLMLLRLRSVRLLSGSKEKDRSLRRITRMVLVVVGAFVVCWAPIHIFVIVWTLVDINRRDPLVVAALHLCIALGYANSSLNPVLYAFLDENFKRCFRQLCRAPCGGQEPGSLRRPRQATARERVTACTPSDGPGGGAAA
EXPERIMENTAL DETAILS: DOR radioligand competition binding assay ([3H]-DPDPE)
STATED CONDITIONS: Delta screening results, second Ki column; unit not printed (apparently M); read-out: Ki (second column)
ENDPOINT: pKi
Note on pKi: it is the negative log10 of concentration, concentration in mol/L.

Illustrative cases are given below, each with its answer.
STRUCTURE	ENDPOINT	DATA VALUE
Cc1cc(O)cc(C)c1C[C@@H](CN1C(=N)NC[C@@H]1Cc1ccccc1)N1C[C@H](Cc2ccccc2)NC1=N	pKi	6.08
Cc1cc(O)cc(C)c1C[C@H]1CNC(=N)N1C[C@H](Cc1ccccc1)N1C[C@H](Cc2ccccc2)NC1=N	pKi	6.33
Cc1cc(O)cc(C)c1C[C@H]1CNC(=N)N1C[C@H](Cc1ccccc1)N1C[C@H](CC(C)C)NC1=N	pKi	5.60
N=C1NC[C@H](Cc2ccc(O)cc2)N1C[C@H](Cc1ccc(O)cc1)N1C[C@H](Cc2ccc(O)cc2)NC1=N	pKi	4.93
Cc1cc(O)cc(C)c1C[C@H]1CN([C@@H](Cc2ccc(O)cc2)CN2C(=N)NC[C@@H]2Cc2c(C)cc(O)cc2C)C(=N)N1	pKi	5.90

(Q) Please report the recorded pKi for Cc1cc(O)cc(C)c1C[C@H]1CN([C@@H](Cc2ccccc2)CN2C(=N)NC[C@@H]2C)C(=N)N1 .
(A) 5.47

(Q) Try this compound next: CC(C)C[C@@H](CN1C(=N)NC[C@@H]1Cc1ccc(O)cc1)N1C[C@H](Cc2ccccc2)NC1=N
(A) 4.45

(Q) Try this compound next: Cc1cc(O)cc(C)c1C[C@H]1CN([C@@H](Cc2c(C)cc(O)cc2C)CN2C(=N)NC[C@@H]2Cc2ccc(O)cc2)C(=N)N1
(A) 6.29

(Q) Try this compound next: Cc1cc(O)cc(C)c1C[C@H]1CNC(=N)N1C[C@H](Cc1c(C)cc(O)cc1C)N1C[C@H](CC(C)C)NC1=N
(A) 5.60

(Q) Try this compound next: N=C1NC[C@H](Cc2ccc(O)cc2)N1C[C@H](Cc1ccccc1)N1C[C@H](Cc2ccccc2)NC1=N
(A) 5.20

(Q) Try this compound next: N=C1NC[C@H](Cc2ccccc2)N1C[C@H](Cc1ccccc1)N1C[C@H](Cc2ccccc2)NC1=N
(A) 5.14

(Q) Try this compound next: N=C1NC[C@H](Cc2ccc(O)cc2)N1C[C@H](Cc1ccc(O)cc1)N1C[C@H](Cc2ccccc2)NC1=N
(A) 5.12
